subject-of-test: prostaglandin-A isomerase (PGAI)
test: Prostaglandin-A isomerase (PGAI) inhibiting action, PGAI preparation from the blood-plasma of pigs
test-parameters: read-out: I50% inhibiting levels in final concentrations, PGAI
pIC50: −log10 of the molar value.
experimental-endpoint: pIC50

Solved cases (2 shown):
*Q* Need pIC50, item CCOC(=O)c1cnn(-c2ccc(NCc3ccccn3)nn2)c1N [Example 16, 3-(2Pyridylmethylamino)-A]
*A* 4.12

*Q* Need pIC50, item CCOC(=O)c1cnn(-c2ccc(NCc3cccnc3)nn2)c1N [Example 17, 3-(3-Pyrdiylmethylamino)-A]
*A* 4.60

A. CCOC(=O)c1cnn(-c2ccc(NCc3ccncc3)nn2)c1N [Example 18, 3-(4-Pyridylmethylamino)-A]
B. CCOC(=O)c1cnn(-c2ccc(NC(C)c3ccccc3)nn2)c1N (stereo not shown) [Example 20, 3-(1-Phenylethylamino)-A]
*Q* Out of A and B , name the one with the higher pIC50. Kindly give the label for the entry you pick.
*A* A
